Value source: PubChem BioAssay (NCI)

# Tested on: SF-268 CNS
# assayText: NCI tumour cell line growth inhibition, 48 h
Hi there, I'd appreciate the recorded TGI for every entry that follows.

compound	result
Cc1cc(C)nc(NS(=O)(=O)c2ccc(NC(=O)c3cccc4c(Nc5ccc(S(N)(=O)=O)cc5)c5ccccc5nc34)cc2)n1	> 67.4 µM

Provide TGI for all items below, preserving their order.
1. CC(CO)CCNc1ncnc2c1ncn2CCC(=O)OC(C)(C)C (stereo not given)
2. O=S(=O)(c1ccccc1)C1CN2OC1(S(=O)(=O)c1ccccc1)CC2c1ccc(Br)cc1 (stereo not given)

> 100 µM
> 100 µM

Provide TGI for all items below, preserving their order.
1. COc1ccc(CC2c3cc(OC)c(OC)cc3CC[N+]2(C)C)cc1OC (stereo not given)
2. CC(C)N(C(=O)C12C3C4C1(I)C1C2C3(I)C41C(=O)N(C(C)C)C(C)C)C(C)C (stereo not given)

["> 100 µM", "> 100 µM"]

* * *

# Tested on: HL-60(TB) leukemia
# assayText: NCI tumour cell line growth inhibition, 48 h
Hi there, I'd appreciate the recorded TGI for every entry that follows.

Check out these entries, answers already filled in.
compound	TGI
COc1ccc(C2OC(N)=C(C#N)C3=C2CCCC3C)cc1OC (stereo unspecified)	> 100 µM
COc1ccc(NC(=O)N(C)CC2(O)CCC(C(C)(C)C)CC2)cc1 (stereo unspecified)	> 100 µM
O=Cc1ccc2c(c1-c1c(C=O)ccc3c1OCO3)OCO2	> 100 µM
CC(C)C(=O)NS(=O)(=O)c1ccccc1	> 100 µM
CC(C)CC(NC(=O)C(CI)Cc1ccccc1)C(=O)Nc1ccccc1 (stereo unspecified)	> 100 µM
OCc1ccn2c1[C@@H](O)CC2	> 100 µM

Provide TGI for all items below, preserving their order.
1. O=[N+]([O-])/C(C(Cl)=C(Cl)Cl)=C(/Nc1ccccc1)SCc1ccccc1
2. c1ccc2nc3c(nc2c1)sc1ccccc13
3. N#CC(C(=O)C(=O)Nc1ccc(Cl)cc1)c1ccccc1 (stereo unspecified)

40.2 µM
> 100 µM
> 100 µM

Provide TGI for all items below, preserving their order.
1. CSc1ccc2c(c1)C(=O)c1c-2n(CCCBr)c(=O)c2cc([N+](=O)[O-])ccc12
2. CCN1C(=O)N(CC)C2C1NN=c1s/c(=C3\C(=O)N(CC(C)(C)C)c4ccccc43)c(=O)n12 (stereo unspecified)

8.46 µM
22.6 µM

* * *

# Test system: M14 melanoma
# assayText: NCI tumour cell line growth inhibition, 48 h
assayReadout: TGI

Check out these entries, answers already filled in.
compound	TGI
CCCCSC1=N/C(=C\c2ccco2)C(Cl)=N1	> 100 µM
COc1ccc(NC(=O)N(C)CC2(O)CCC(C(C)(C)C)CC2)cc1 (stereo unspecified)	> 100 µM
COCC1(CO)C(=O)C2CCN1CC2 (stereo unspecified)	31.6 µM
O=[N+]([O-])/C(C(Cl)=C(Cl)Cl)=C(/Nc1ccccc1)SCc1ccccc1	30.6 µM
CCOC(=O)c1c(NC(=O)OC)c(C#N)c2n1CCCCC2	> 100 µM

Provide TGI for all items below, preserving their order.
1. Cc1cc(C)c(NC(=O)c2sc3nc4c(cc3c2N)CN(Cc2ccccc2)CC4)c(C)c1
2. COC(=O)C1=C(C(=O)Nc2cccnc2Cl)N(c2ccc(OC)cc2[N+](=O)[O-])C(c2ccc(C)cc2)=CC1c1ccc(OC)cc1OC (stereo unspecified)
3. CCCCCOc1ccc(/C=N/Nc2cc(C)nc3ccc(Br)cc23)cc1
4. CC(C)N(C(=O)C1(O)c2ccccc2C=Cc2ccccc21)C(C)C
5. COc1cc2c(c(OC)c1OC)-c1ncc3cc4c(cc3c1C2)OCO4

["31.5 µM", "> 72.5 µM", "3.53 µM", "40.1 µM", "> 100 µM"]

Provide TGI for all items below, preserving their order.
1. COc1ccc2c(c1)nc1n2C(c2c(Cl)cccc2Cl)SC1 (stereo unspecified)
2. COc1cc(C(=O)N2CCN(c3ncccn3)CC2)c(N)cc1OCc1ccccc1
3. Cc1cn(C2CC(O)C(CO[Si](C)(C)C(C)(C)C)OC2OC(C)C)c(=O)[nH]c1=O (stereo unspecified)
4. C#CC(C)(C)OC(=O)C(=[N+]=[N-])C(C)=O
5. Cc1cc(C)c(C(=O)c2nnc3ccccc3c2N)c(C)c1

["> 43.7 µM", "> 100 µM", "92.5 µM", "> 10 µM", "34 µM"]

Provide TGI for all items below, preserving their order.
1. CCn1c(=O)c2c(=O)c3c4c(oc3oc2c2ccccc21)C(=O)c1ccccc1C4=O
2. O=C(NCCCl)N(O)C(=O)Nc1ccccc1

> 100 µM
> 100 µM

* * *

Hi there, I'd appreciate the recorded TGI for every entry that follows.
# Test system: SR leukemia
# assayText: NCI tumour cell line growth inhibition, 48 h

Provide TGI for all items below, preserving their order.
1. CC(=O)O[C@H]1CCC2[C@@H]3CCC4Nc5oncc5C[C@]4(C)C3CC[C@@]21C (stereo partly drawn)
2. Cc1ccc(NC(=O)CSc2nnc(-c3ccc(N=Cc4ccc(Cl)cc4)cc3)o2)cc1

1: > 10 µM; 2: > 100 µM

Provide TGI for all items below, preserving their order.
1. CC(=O)O/C(=C1\C[C@H]2[C@@H]3CC=C4C[C@@H](OC(C)=O)CC[C@]4(C)[C@H]3CC[C@]2(C)C1=O)C(F)(F)F
2. CC(C)(S)C(N)C(=O)O (stereo not drawn)
3. COc1ccc(CCNC(=O)c2ccc(NC3=C(Cl)C(=O)N(Cc4ccccc4)C3=O)cc2)cc1OC
4. CCC(=O)O[C@H]1CC[C@H]2[C@@H]3CCC4=C/C(=N/OC(=O)c5cccc6c(=O)c7ccccc7[nH]c56)CC[C@]4(C)[C@H]3CC[C@]12C
5. O=[N+]([O-])/C(C(Cl)=C(Cl)Cl)=C(/Nc1ccccc1)SCc1ccccc1
6. O=C1/C(=C/c2cccc(Br)c2)Cc2ccccc21
7. COC(=O)c1ccccc1Nc1nc(-c2cccs2)nc2cc(OC)c(OC)cc12

10.9 µM
> 5000 µM
3.15 µM
> 100 µM
52.3 µM
> 100 µM
> 100 µM

* * *

# Test system: NCI-H522 lung
# assayText: NCI tumour cell line growth inhibition, 48 h; in the data active means GI50 below about 0.43 µM; inactive means the rest
Please state which outcome applies, choosing from yes (1) = active, no (0) = inactive

Worked cases, answers included:
querySmiles	assignedCategory
NC(=O)OCCn1cc(-c2nc(-c3c[nH]c4ncccc34)cs2)c2ccccc21	no (0)
N=C(N)c1ccc2nc(-c3cc(CC(=O)N[C@@H](CC(=O)O)C(=O)O)cc(-c4cc(S(N)(=O)=O)ccc4O)c3O)[nH]c2c1	no (0)
CCN(Cc1ccccc1C)c1ccc(CO)c(Cl)c1	no (0)
O=C1NC(=NCCc2cccc(Cl)c2)S/C1=C\c1ccc2ncccc2c1	no (0)
COc1ccc(O)c(C(=O)c2ccc(C(=O)N[C@H]3CCCNC[C@@H]3NC(=O)c3ccncc3)cc2)c1F	no (0)

Tell me the recorded outcome of this test for CCCOc1ccc2sc(NC(=O)OC)nc2c1 . no (0)

Tell me the recorded outcome of this test for COc1cc(OC)c(/C=C/c2c3ccccc3cc[n+]2C)c(OC)c1 . no (0)

Tell me the recorded outcome of this test for C1=C\COCc2cc(ccc2OCCN2CCCC2)Nc2nccc(n2)-c2cccc(c2)COC/1 . no (0)

Tell me the recorded outcome of this test for N#Cc1c(N/N=C/c2ccc(Cl)cc2Cl)nc(N)nc1N1CCCC1 . no (0)

Tell me the recorded outcome of this test for NC(=O)c1cc(S(=O)(=O)Nc2nnc(-c3ccccc3)c(-c3ccccc3)n2)c(SCc2ccccc2)cc1Cl . no (0)

* * *

# Tested on: SNB-75 CNS
# assayText: NCI tumour cell line growth inhibition, 48 h
assayReadout: TGI

Check out these entries, answers already filled in.
compound	TGI
CCCO/S(=N\S(=O)(=O)c1ccccc1)c1ccccc1[N+](=O)[O-] (stereo not given)	> 100 µM
COc1ccc(NC(=O)N(C)CC2(O)CCC(C(C)(C)C)CC2)cc1 (stereo not given)	> 100 µM
COC(=O)[C@H](Cc1c[nH]c2ccccc12)NC(=O)c1ccc(CNC(=O)/C(C)=C/c2ccccc2)cc1	32.2 µM
O=C1c2ccccc2-c2c1c1ccccc1c(=O)n2CCCCl	36.6 µM

So for O=C1/C(=C/c2cccc(Br)c2)Cc2ccccc21 , the logged TGI turned out to be > 100 µM

* * *

# System: RPMI-8226 leukemia
# assayText: NCI tumour cell line growth inhibition, 48 h
assayReadout: TGI

Provide TGI for all items below, preserving their order.
1. Fc1ccc(C(=C2CCN(CCc3ccc4[nH]c(=S)[nH]c4c3)CC2)c2ccc(F)cc2)cc1
2. Cc1ccc(-c2n[nH]c(=O)n2/N=C\c2ccc([N+](=O)[O-])cc2)cc1
3. CCC(C)C1NC(=O)C(NC(=O)c2c3[nH]c4c(C(=O)NC5C(=O)NC(C(C)CC)C(=O)N6CCCC6C(=O)N(C)CC(=O)N(C)C(C(C)C)C(=O)OC5C)ccc(C)c4oc-3c(C)c(=O)c2=O)C(C)OC(=O)C(C(C)C)N(C)C(=O)CN(C)C(=O)C2CCCN2C1=O (configuration not stated)

1: 8.67 µM; 2: > 100 µM; 3: 35.1 µM

Provide TGI for all items below, preserving their order.
1. CC(=O)Oc1ccccc1C(=O)Nc1ncc([N+](=O)[O-])s1
2. CCOP(=O)(OCC)OC1C=CC2CCC1C2 (configuration not stated)
3. O=C(O/C=C\OC1CCCC1(c1ccccc1)c1ccccc1)c1ccccc1 (configuration not stated)

> 100 µM
54.2 µM
6.44 µM

Provide TGI for all items below, preserving their order.
1. CN[C@@H](C)[C@@H](NC)c1ccccc1
2. COC(=O)c1ccccc1Nc1nc(-c2cccs2)nc2cc(OC)c(OC)cc12
3. C/C(CC(=O)Nc1cccc(Cl)c1C)=N\NC(=O)c1ccncc1
4. Oc1cc(O)cc(-c2nc3cc(F)ccc3s2)c1

["> 100 µM", "> 100 µM", "> 100 µM", "50.2 µM"]
